# Target under test: MAPK9 (Homo sapiens)
# Sequence (P45984 whole entry): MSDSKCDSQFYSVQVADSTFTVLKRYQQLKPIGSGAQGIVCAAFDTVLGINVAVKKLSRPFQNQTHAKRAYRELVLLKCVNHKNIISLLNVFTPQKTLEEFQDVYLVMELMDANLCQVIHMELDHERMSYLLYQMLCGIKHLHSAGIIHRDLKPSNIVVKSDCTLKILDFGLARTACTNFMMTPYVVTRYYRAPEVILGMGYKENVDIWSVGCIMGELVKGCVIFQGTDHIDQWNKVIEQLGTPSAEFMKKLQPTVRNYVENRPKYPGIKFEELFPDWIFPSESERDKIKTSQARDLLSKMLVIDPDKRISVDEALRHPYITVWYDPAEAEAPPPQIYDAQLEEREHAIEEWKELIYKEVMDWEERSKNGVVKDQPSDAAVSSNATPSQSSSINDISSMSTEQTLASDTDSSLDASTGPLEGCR
# Test details: biochemical
# Measurement setup: read-out: KDapp
Quantity: pKd
As a rule, pKd stands for the negative log10 of the concentration, concentration in M.

// lookup pKd for "Cl.NCC1(c2nc(-c3ccc(Cl)c(O)c3)c(-c3ccncc3)[nH]2)CCCCC1"
6.45

###

# Target under test: PAK4 (Homo sapiens, UniProt O96013)
# Sequence (O96013 whole entry): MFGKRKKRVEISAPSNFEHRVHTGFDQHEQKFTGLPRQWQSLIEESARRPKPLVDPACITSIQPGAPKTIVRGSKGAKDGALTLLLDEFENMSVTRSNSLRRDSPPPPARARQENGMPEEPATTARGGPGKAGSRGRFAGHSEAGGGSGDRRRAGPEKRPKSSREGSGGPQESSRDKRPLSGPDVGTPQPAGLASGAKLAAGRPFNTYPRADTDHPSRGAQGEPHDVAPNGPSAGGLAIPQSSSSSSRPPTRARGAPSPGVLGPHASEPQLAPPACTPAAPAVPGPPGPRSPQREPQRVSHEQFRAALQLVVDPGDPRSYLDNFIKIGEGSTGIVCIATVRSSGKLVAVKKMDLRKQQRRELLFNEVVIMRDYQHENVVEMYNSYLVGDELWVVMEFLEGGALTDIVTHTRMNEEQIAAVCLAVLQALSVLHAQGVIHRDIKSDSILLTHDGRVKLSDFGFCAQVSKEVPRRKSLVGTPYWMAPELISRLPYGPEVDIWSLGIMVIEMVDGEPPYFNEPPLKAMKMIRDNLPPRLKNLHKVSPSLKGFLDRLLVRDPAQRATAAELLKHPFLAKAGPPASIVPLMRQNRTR
# Test details: biochemical
# Measurement setup: read-out: KDapp
Quantity: Kd (µM)
Express your answer in µM, writing the number without its unit.

Bench note: what Kd did "Cl.NCC1(c2nc(-c3ccc(Cl)c(O)c3)c(-c3ccncc3)[nH]2)CCCCC1" show?
4.91

###

Give pIC50 for every item shown.
# Target under test: TP53RK (Homo sapiens)
# Sequence (Q96S44 whole entry): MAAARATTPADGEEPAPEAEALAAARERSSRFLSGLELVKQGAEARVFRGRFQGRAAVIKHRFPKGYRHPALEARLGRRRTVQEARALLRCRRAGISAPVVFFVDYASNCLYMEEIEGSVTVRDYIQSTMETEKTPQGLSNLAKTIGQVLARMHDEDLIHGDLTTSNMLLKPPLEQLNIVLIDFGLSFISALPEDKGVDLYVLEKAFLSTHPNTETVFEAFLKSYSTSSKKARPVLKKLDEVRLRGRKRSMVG
pIC50: −log10 of the molar value.

Identify the measured pIC50 of "CN1CCN(c2ccc(Nc3ncc(C#N)c(Nc4ccccc4C(N)=O)n3)cc2)CC1.Cl" for TP53RK (Homo sapiens).
5.40

Now the compound CN(C)CC(O)COc1ccc(Nc2ncc([N+](=O)[O-])c(Nc3ccccc3O)n2)cc1.O=C(O)C(F)(F)F (stereo not drawn)
< 4.70

Note, next up: "Cl.NCC1(c2nc(-c3ccc(Cl)c(O)c3)c(-c3ccncc3)[nH]2)CCCCC1"
< 4.70

###

pIC50: −log10 of the molar value.
pIC50 data for mTOR (Homo sapiens, UniProt P42345) follow.

Any idea what its pIC50 is? The molecule is "Cl.NCC1(c2nc(-c3ccc(Cl)c(O)c3)c(-c3ccncc3)[nH]2)CCCCC1"
< 4.70

What would you report for CN(C)CC(O)COc1ccc(Nc2ncc([N+](=O)[O-])c(Nc3ccccc3O)n2)cc1.O=C(O)C(F)(F)F (stereo not drawn) ?
< 4.70

// repeat for "CN1CCN(c2ccc(Nc3ncc(C#N)c(Nc4ccccc4C(N)=O)n3)cc2)CC1.Cl" and report
< 4.70

###

# Target under test: AURKA (Homo sapiens)
# Sequence (O14965 1-403): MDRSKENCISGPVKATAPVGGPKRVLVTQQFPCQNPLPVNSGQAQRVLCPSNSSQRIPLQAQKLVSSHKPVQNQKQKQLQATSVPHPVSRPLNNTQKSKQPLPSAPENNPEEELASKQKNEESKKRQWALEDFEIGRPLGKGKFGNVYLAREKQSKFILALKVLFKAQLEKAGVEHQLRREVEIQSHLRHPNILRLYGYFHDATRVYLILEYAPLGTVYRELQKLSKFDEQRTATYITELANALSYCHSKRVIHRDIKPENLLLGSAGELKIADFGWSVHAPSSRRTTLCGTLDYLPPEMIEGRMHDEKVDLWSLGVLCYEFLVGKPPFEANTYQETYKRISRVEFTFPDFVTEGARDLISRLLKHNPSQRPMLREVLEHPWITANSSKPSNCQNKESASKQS
# Test details: biochemical
# Measurement setup: read-out: KDapp
Quantity: pKd
Convention used: pKd is expressed as -log10 of the molar concentration.

Look up pKd: CN1CCN(c2ccc(Nc3ncc(C#N)c(Nc4ccccc4C(N)=O)n3)cc2)CC1.Cl [TCMDC-134116]
7.91

###

# Target under test: KIT (Homo sapiens)
# Sequence (P10721 whole entry): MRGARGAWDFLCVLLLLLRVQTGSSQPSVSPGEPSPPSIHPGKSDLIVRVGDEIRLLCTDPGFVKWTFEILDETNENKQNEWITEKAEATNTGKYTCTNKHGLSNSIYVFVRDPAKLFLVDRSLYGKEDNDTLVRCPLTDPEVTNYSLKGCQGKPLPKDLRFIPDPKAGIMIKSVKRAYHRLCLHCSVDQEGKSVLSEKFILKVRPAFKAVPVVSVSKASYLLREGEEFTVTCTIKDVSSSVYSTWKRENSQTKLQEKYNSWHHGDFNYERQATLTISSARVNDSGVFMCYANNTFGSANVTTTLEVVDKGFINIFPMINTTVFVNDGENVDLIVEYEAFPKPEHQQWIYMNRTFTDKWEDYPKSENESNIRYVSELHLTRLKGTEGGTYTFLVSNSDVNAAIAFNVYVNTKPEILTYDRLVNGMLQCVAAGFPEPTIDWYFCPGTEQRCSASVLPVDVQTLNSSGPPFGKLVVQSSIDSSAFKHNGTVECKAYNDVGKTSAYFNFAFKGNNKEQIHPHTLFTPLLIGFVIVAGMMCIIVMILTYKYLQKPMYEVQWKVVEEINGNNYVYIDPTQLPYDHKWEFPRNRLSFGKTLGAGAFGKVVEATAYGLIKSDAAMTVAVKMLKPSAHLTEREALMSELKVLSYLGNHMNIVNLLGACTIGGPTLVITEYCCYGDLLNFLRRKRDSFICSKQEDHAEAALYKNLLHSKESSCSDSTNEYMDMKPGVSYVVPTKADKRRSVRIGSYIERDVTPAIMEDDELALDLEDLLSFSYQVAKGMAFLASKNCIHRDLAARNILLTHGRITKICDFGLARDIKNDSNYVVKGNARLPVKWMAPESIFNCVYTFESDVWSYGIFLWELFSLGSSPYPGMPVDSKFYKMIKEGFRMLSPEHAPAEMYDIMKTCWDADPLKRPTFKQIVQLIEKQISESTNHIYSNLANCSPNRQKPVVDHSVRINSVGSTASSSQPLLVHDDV
# Test details: biochemical
# Measurement setup: read-out: KDapp
Quantity: pKd
Schema: pKd number; meaning minus log10 of the concentration expressed in molar units.

Item "CN1CCN(c2ccc(Nc3ncc(C#N)c(Nc4ccccc4C(N)=O)n3)cc2)CC1.Cl" with KIT (Homo sapiens) - pKd?
5.96
